The origin of these recorded values is paper PMC10985026.

Tested on: HUVEC
Experiment: MTT cytotoxicity assay, HUVEC
Assay type: cell-based, human
Settings: Homo sapiens, HUVEC, 48 h, read-out: IC50 HUVEC
MEASURED_METRIC: IC50

Record "CC(=O)Nc1ccc(O)cc1" . Reported IC50: > 100 µM
